system: HIVIIIB; assay: Antiviral Activity: anti-HIV activity in MT4 cells infected with HIVIIIB (MTT); assay type: cell-based; details: Human immunodeficiency virus 1, 120 h, MOI 0.003, 5 days, n=four duplicate determinations
ENDPOINT_LABEL: EC50

CC(C)c1nc(CN(C)C(=O)N[C@H](C(=O)N[C@@H](Cc2ccccc2)C[C@H](O)[C@H](Cc2ccccc2)NC(=O)O[C@H]2CCOC2)C(C)C)cs1 [Example 50]    32 nM
Cc1ccc(N)c(C)c1OCC(=O)N[C@@H](Cc1ccccc1)C[C@H](O)[C@H](Cc1ccccc1)NC(=O)O[C@H]1CO[C@H]2OCC[C@H]21 [Example 16]    < 32 nM
Cc1nc(CN(C)C(=O)N[C@H](C(=O)N[C@@H](Cc2ccccc2)C[C@H](O)[C@H](Cc2ccccc2)NC(=O)O[C@@H]2CO[C@@H]3OCC[C@@H]32)C(C)C)cs1 [Example 47]    55 nM
CC(C)[C@@H](NC(=O)N(C)Cc1cncs1)C(=O)N[C@@H](Cc1ccccc1)C[C@H](O)[C@H](Cc1ccccc1)NC(=O)O[C@H]1CO[C@H]2OCC[C@H]21 [Example 44]    370 nM
O=C(N[C@@H](Cc1ccccc1)C[C@H](O)[C@H](Cc1ccccc1)NC(=O)c1cccc(O)c1)O[C@H]1CO[C@H]2OCC[C@H]21 [Example 66]    644 nM

Ask: Could you tell me which EC50 is on file for Cc1cc(C)c(OCC(=O)N[C@@H](Cc2ccccc2)C[C@H](O)[C@H](Cc2ccccc2)NC(=O)O[C@H]2CO[C@H]3OCC[C@H]32)c(C)c1 [Example 11] ?
Reply: 205 nM

Ask: Which measured EC50 value corresponds to O=C(N[C@@H](Cc1ccccc1)[C@@H](O)C[C@H](Cc1ccccc1)NC(=O)c1ccc(O)cc1)O[C@@H]1CO[C@@H]2OCC[C@@H]21 [Example 53] ?
Reply: 704 nM

Ask: Quick one: EC50 for O=C(N[C@@H](Cc1ccccc1)C[C@H](O)[C@H](Cc1ccccc1)NC(=O)OC1COC2OCCC12)OC1COC2OCCC12 (stereo partly drawn) [Example 41] ?
Reply: 43 nM

Ask: I have this molecule here, Cc1ncnc(C)c1OCC(=O)N[C@@H](Cc1ccccc1)C[C@H](O)[C@H](Cc1ccccc1)NC(=O)O[C@H]1CO[C@H]2OCC[C@H]21 [Example 8] , and I need its recorded EC50.
Reply: 815 nM

Ask: Which EC50 is reported for this molecule? O=C(N[C@@H](Cc1ccccc1)[C@@H](O)C[C@H](Cc1ccccc1)NC(=O)OC1COC2OCCC12)OCc1cncs1 (stereo partly drawn) [Example 35]
Reply: 428 nM

Ask: Return reported EC50; argument: CC(C)c1nc(COC(=O)N[C@H](C(=O)N[C@@H](Cc2ccccc2)C[C@H](O)[C@H](Cc2ccccc2)NC(=O)OC2COC3OCCC23)C(C)C)cs1 (stereo partly drawn) [Example 37]
Reply: 14 nM

Ask: # get_value(readout='EC50', item= CC(C)c1nc(CN(C)C(=O)N[C@H](C(=O)N[C@@H](Cc2ccccc2)C[C@H](O)[C@H](Cc2ccccc2)NC(=O)O[C@@H]2CO[C@@H]3OCC[C@@H]32)C(C)C)cs1 [Example 48] )
Reply: 11 nM
